IC50 for Mast/stem cell growth factor receptor Kit (Homo sapiens), merged from several publications.

A selection of reference data follows.
>  <molecule>
O=C(Nc1cc(C2=Cc3cnc(NC4COC4)nc3N3CCN=C23)c(Br)cc1F)Nc1ccccc1Cl

>  <measuredTarget>
Mast/stem cell growth factor receptor Kit (Homo sapiens)

>  <IC50>
< 0.1 µM

$$$$
>  <molecule>
COc1ccnc2[nH]cc(C(=O)c3c(F)ccc(NS(=O)(=O)c4ccc(F)cc4F)c3F)c12

>  <measuredTarget>
Mast/stem cell growth factor receptor Kit (Homo sapiens)

>  <IC50>
≤ 10 µM

$$$$
>  <molecule>
O=C(c1c(F)ccc(NS(=O)(=O)N2CCCC2)c1F)c1c[nH]c2ncc(Cl)cc12

>  <measuredTarget>
Mast/stem cell growth factor receptor Kit (Homo sapiens)

>  <IC50>
≤ 10 µM

$$$$

Enquiry: Give the reported IC50 for this molecule. `CCCc1ccc(S(=O)(=O)Nc2ccc(F)c(C(=O)c3c[nH]c4ncc(-c5cnn(C)c5)cc34)c2F)cc1`
Return: ≤ 10 µM

Enquiry: Give the reported IC50 for this molecule. `Cc1nc(NC(=O)N2CCC(C)(C)C2=O)ccc1Oc1ccnc(-c2cnn(C)c2)c1`
Return: 0.077 µM

Enquiry: Give the reported IC50 for this molecule. `COc1ccc(-c2n[nH]c3nc(-c4cc(OC)cc(OC)c4)ccc23)cc1`
Return: ~1.2 µM

Enquiry: Give the reported IC50 for this molecule. `Cc1c(C#Cc2cnc3ccc(N4CCC(O)CC4)nn23)cccc1C(=O)Nc1cc(Cl)cc(C(F)(F)F)c1`
Return: 1.67 µM

Enquiry: Give the reported IC50 for this molecule. CCOC(=O)N=S(C)(=O)c1ccc2cc1NCCCCNc1nc(ncc1Br)N2 (racemic)
Return: 0.029 µM
